- TARGET_OR_TEST_SYSTEM: T1, cynomolgus monkey C-MET on stably transfected CHO-K1 cells (cynomolgus monkey, UniProt A0M8R7 25-1381 (Papio anubis entry))
- T1 construct: also called cycMET; cyno C-MET+ CHO-K1 cells
- T1 sequence (A0M8R7 25-1381 S170N/I621T limits assumed): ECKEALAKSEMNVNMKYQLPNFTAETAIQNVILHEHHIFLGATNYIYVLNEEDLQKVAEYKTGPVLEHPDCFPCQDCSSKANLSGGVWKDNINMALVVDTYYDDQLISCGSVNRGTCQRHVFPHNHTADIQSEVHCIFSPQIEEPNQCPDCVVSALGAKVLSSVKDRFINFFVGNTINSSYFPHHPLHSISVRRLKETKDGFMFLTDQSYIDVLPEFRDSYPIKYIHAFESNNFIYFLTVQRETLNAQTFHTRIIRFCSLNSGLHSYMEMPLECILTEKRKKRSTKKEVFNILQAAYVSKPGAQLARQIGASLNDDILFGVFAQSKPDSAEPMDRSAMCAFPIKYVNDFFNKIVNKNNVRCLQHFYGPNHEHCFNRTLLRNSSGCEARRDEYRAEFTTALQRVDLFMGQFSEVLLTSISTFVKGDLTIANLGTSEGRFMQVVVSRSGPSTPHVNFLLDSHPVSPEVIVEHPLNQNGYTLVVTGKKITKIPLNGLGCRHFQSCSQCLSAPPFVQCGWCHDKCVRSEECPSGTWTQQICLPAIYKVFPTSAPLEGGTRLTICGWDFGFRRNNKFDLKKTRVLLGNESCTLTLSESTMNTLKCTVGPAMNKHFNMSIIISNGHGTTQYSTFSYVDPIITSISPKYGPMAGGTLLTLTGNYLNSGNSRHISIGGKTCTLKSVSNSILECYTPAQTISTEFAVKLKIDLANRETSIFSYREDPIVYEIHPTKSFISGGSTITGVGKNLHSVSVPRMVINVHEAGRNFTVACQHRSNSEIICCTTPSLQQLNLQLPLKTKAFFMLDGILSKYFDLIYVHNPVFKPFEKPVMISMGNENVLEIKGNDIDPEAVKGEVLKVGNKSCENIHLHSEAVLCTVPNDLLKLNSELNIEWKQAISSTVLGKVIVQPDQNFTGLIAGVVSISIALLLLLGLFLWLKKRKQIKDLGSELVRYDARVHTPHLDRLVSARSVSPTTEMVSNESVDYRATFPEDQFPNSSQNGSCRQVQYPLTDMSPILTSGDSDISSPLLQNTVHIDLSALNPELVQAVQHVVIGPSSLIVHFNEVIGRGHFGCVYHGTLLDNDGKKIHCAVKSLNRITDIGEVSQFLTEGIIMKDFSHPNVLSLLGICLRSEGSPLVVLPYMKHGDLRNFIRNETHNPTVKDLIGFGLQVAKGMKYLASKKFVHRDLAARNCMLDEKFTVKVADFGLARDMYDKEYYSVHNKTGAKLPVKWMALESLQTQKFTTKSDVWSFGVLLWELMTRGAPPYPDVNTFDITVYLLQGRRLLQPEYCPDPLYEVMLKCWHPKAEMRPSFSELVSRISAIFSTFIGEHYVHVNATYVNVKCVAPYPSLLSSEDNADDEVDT
- PROTOCOL_DESCRIPTION: flow cytometry, C-MET CHO-K1 cells
OUTCOME_MEASURE: pEC50
One number for each entry, as −log10 of the molar value.

Below, 2 binders whose answers are already recorded.
In: Find the recorded pEC50 belonging to 09B08 (antibody, IgG4, V domains shown) VH: QVQLVQSGAEVKKPGASVKVSCKASGYTFTSYTMHWVRQAPGQGLEWMGWINPNNGSTNYAQKFQGRVTMTRDTSTSTVYMELSSLRSEDTAVYYCARSEITTDFDYWGQGTLVTVSS VL: EIVLTQSPGTLSLSPGERATLSCRASQSVSSYANSYLHWYQQKPGQAPRLLIYRGSTRESGIPDRFSGSGSGTDFTLTISRLEPEDFAVYYCQQSKSDPLTFGGGTKVEIK and report it.
Out: 8.42

In: Look at this binder and give its reported pEC50. MH4 (antibody, IgG4, V domains shown) VH: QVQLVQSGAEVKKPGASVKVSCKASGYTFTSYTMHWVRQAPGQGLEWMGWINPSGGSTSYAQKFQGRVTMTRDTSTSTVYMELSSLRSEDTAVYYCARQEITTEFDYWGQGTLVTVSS VL: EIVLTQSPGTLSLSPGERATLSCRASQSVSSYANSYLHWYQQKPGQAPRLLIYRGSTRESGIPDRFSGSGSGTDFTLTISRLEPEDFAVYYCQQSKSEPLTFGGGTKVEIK
Out: 9.32

Now, please, on to the next binder.
In: Given MH10 (antibody, IgG4, V domains shown) VH: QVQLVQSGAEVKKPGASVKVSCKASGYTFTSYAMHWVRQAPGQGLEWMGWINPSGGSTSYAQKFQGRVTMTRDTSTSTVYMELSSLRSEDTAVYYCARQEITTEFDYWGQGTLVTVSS VL: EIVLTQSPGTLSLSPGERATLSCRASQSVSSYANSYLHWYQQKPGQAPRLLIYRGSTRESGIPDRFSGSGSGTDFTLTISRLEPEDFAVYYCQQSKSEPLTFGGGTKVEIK , state its recorded pEC50.
Out: 9.34
